This collection of values is drawn from ChEMBL document CHEMBL3864175.

# TEST_SUMMARY: Dissociation constant, pKa of the compound at pH 1.7 to 11.2 by capillary electrophoresis method
# Format: physicochemical
Tick Condition met if pKa is 4 or greater. Tick Condition not met if pKa is less than 4.

Worked set:
| SMILES_STRUCTURE | CLASSIFICATION |
| --- | --- |
| COc1cc(C(F)(F)F)ccc1-c1cccc2cc(S(=O)(=O)Nc3cscn3)ccc12 | Condition met |
| COc1cc(C(F)(F)F)ccc1-c1cccc2cc(S(=O)(=O)Nc3ncns3)ccc12 | Condition not met |
| O=S(=O)(Nc1ncns1)c1ccc2c(-c3ccc(C(F)(F)F)cc3O)cccc2c1 | Condition not met |
| COc1cc(C(F)(F)F)ccc1-c1cccc2cc(S(=O)(=O)Nc3nccs3)ccc12 | Condition met |
| O=S(=O)(Nc1ncns1)c1ccc2c(-c3ccc(C(F)(F)F)cc3C3=CCNCC3)cccc2c1 | Condition not met |

Threshold query (pKa >= 4) on O=S(=O)(Nc1ncns1)c1ccc2c(-c3ccc(C(F)(F)F)cc3Br)cccc2c1 Condition not met

Threshold query (pKa >= 4) on Cc1cc(C(F)(F)F)ccc1-c1cccc2cc(S(=O)(=O)Nc3ncns3)ccc12 Condition not met

Threshold query (pKa >= 4) on COc1cc(C(F)(F)F)ccc1-c1ncnc2cc(S(=O)(=O)Nc3nccs3)ccc12 Condition met

----------
# TEST_SUMMARY: Drug excretion in bile duct cannulated Sprague-Dawley rat feces assessed as parent compound at 1 mg/kg, iv administered through catheter measured up to 24 hrs by LC-MS/MS analysis
# Type: ADME, organism-based
# SETTINGS: faeces, read-out: Drug excretion
QUANTITY_MEASURED: dose excreted at 24 h (%)
Field format: number, assumed %, no unit text.

Endpoint output: dose excreted at 24 h of COc1cc(C(F)(F)F)ccc1-c1ncnc2cc(S(=O)(=O)Nc3nccs3)ccc12 . Value? 0.6

----------
# TEST_SUMMARY: Total plasma concentration in histamine induced C57BL/6 mouse model of scratching at 60 mg/kg, po pretreated for 120 mins followed by histamine-challenge measured after 30 mins
# Format: ADME, organism-based
QUANTITY_MEASURED: concentration at 0.5 h (µM)
Field format: number, assumed µM, no unit text.

Endpoint output: concentration at 0.5 h of COc1cc(C(F)(F)F)ccc1-c1ncnc2cc(S(=O)(=O)Nc3nccs3)ccc12 . Value? 150

----------
# MEASUREMENT_TARGET: Sodium channel protein type 9 subunit alpha (Homo sapiens, UniProt Q15858)
# Sequence (Q15858 whole entry): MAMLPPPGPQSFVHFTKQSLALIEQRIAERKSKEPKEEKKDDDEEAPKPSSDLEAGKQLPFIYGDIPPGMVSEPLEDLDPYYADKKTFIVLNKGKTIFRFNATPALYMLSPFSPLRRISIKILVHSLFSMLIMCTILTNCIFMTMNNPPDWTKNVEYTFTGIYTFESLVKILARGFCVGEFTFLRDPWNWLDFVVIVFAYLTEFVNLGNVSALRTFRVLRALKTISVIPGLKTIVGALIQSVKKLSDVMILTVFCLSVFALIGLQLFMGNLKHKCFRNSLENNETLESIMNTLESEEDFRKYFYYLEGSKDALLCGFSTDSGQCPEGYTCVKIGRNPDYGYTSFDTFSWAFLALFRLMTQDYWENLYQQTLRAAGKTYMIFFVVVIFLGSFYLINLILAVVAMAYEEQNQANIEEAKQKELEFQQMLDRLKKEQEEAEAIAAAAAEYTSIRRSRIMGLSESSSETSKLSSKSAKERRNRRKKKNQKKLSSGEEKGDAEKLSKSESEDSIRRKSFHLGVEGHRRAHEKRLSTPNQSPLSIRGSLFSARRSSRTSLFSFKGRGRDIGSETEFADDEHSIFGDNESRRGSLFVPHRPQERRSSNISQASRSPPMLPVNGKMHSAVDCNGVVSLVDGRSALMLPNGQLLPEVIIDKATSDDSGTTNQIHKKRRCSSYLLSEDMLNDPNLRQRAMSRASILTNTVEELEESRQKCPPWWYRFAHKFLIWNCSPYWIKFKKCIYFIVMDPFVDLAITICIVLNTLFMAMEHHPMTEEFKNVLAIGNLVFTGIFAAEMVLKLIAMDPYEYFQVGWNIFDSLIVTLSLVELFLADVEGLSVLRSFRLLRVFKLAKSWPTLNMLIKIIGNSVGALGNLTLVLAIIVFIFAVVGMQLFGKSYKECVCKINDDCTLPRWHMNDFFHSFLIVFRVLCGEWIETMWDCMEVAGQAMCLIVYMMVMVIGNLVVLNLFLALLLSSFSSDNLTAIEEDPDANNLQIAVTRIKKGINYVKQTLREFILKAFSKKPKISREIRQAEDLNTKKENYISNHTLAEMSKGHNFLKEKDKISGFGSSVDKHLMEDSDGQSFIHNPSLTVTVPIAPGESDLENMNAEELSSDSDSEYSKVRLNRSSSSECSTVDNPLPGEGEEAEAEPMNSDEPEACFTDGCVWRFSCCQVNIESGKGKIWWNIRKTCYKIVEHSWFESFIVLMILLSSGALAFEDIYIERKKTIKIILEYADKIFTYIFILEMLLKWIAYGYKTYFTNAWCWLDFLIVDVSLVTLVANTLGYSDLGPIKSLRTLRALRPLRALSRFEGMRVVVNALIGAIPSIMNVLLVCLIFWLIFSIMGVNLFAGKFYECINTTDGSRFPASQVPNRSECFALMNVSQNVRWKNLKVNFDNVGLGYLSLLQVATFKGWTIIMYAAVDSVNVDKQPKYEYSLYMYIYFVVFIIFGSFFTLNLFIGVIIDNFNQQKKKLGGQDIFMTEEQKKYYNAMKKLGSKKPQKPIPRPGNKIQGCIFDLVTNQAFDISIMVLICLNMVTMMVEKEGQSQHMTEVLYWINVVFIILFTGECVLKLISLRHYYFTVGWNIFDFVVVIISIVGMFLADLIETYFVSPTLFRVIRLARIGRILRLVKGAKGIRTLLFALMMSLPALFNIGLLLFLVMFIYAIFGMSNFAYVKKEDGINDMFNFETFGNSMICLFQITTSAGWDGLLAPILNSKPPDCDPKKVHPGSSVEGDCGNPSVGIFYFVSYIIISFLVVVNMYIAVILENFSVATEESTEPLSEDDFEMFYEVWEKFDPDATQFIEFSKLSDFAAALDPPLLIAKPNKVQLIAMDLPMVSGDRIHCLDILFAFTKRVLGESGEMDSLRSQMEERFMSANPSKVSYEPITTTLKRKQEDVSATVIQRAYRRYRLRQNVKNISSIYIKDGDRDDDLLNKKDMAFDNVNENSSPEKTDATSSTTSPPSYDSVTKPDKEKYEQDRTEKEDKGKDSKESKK
# TEST_SUMMARY: Inhibition of 20% inactivated human Nav1.7 expressed in HEK293 cells assessed as inhibition of peak inward current by whole cell patch clamp method
# Assay type: cell-based
QUANTITY_MEASURED: pIC50
Please note pIC50 is a logarithmic value: minus log10 of concentration in mol/L. Answer with that number alone.

Endpoint output: pIC50 of COc1cc(C(F)(F)F)ccc1-c1ncnc2cc(S(=O)(=O)Nc3nccs3)ccc12 . Value? 6.85

----------
# MEASUREMENT_TARGET: Sodium channel protein type 5 subunit alpha (Homo sapiens, UniProt Q14524)
# Sequence (Q14524 whole entry): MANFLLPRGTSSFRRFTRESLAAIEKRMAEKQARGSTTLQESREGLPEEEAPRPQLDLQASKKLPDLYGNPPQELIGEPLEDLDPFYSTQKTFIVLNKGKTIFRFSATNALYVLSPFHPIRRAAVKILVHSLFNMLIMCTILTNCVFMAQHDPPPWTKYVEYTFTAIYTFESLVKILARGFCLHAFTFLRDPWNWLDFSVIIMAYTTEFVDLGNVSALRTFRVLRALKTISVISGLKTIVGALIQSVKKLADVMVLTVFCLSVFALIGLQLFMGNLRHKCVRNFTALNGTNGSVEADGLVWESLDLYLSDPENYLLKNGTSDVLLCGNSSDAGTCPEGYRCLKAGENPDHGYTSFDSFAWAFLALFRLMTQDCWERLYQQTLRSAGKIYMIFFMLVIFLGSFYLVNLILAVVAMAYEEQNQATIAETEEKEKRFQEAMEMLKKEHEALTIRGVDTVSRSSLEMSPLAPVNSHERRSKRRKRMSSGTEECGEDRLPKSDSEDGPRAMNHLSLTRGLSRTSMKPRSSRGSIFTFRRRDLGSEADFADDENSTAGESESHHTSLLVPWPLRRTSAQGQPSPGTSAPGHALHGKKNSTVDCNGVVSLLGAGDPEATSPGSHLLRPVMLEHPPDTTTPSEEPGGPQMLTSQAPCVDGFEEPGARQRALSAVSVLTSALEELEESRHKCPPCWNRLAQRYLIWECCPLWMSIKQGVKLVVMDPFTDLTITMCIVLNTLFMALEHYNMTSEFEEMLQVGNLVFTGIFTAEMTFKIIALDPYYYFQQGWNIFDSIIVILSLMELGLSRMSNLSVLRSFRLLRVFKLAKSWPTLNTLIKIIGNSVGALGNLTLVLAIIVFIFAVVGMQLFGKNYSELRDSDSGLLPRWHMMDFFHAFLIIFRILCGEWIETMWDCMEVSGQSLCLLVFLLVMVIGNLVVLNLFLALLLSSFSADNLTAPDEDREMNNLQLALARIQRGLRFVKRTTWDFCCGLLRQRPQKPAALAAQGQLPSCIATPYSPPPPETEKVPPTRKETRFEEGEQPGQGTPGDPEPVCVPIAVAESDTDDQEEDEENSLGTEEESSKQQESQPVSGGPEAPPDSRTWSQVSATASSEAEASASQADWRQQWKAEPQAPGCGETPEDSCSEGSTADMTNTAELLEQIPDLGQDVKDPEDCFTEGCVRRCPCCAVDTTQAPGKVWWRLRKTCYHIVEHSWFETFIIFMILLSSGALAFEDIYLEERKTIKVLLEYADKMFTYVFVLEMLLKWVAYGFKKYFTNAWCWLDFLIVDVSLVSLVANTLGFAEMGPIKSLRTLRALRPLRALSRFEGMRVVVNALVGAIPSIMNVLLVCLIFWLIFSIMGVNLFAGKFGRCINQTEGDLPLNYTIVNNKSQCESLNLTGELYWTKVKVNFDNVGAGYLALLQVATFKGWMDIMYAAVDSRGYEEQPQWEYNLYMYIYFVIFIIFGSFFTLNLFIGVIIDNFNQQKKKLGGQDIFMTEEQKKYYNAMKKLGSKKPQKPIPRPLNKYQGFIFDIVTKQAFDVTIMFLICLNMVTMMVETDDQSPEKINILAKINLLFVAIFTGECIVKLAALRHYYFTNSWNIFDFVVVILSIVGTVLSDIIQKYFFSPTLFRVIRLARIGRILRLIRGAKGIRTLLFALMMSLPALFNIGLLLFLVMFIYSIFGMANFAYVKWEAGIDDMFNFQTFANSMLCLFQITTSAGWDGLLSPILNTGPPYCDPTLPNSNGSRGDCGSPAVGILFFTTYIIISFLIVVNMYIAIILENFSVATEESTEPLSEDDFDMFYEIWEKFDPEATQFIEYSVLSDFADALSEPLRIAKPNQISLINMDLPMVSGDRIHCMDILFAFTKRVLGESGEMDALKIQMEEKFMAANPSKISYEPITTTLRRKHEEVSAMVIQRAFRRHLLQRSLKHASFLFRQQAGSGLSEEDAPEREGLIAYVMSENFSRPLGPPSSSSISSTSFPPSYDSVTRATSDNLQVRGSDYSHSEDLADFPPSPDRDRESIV
# TEST_SUMMARY: Inhibition of 20% inactivated human Nav1.5 expressed in HEK293 cells assessed as inhibition of peak inward current by whole cell patch clamp method
# Format: cell-based
QUANTITY_MEASURED: pIC50
Please note pIC50 is a logarithmic value: minus log10 of concentration in mol/L. Answer with that number alone.

Endpoint output: pIC50 of COc1cc(C(F)(F)F)ccc1-c1ncnc2cc(S(=O)(=O)Nc3nccs3)ccc12 . Value? 4.80

----------
# TEST_SUMMARY: Drug excretion in bile duct cannulated Sprague-Dawley rat bile assessed as parent compound at 1 mg/kg, iv administered through catheter measured up to 24 hrs by LC-MS/MS analysis
# Type: ADME, organism-based
# SETTINGS: read-out: Drug excretion
QUANTITY_MEASURED: dose excreted at 24 h (%)
Field format: number, assumed %, no unit text.

Endpoint output: dose excreted at 24 h of COc1cc(C(F)(F)F)ccc1-c1ncnc2cc(S(=O)(=O)Nc3nccs3)ccc12 . Value? 4.7

----------
# TEST_SUMMARY: Tmax in rat at 10 mg/kg, po by LC-MS/MS analysis
# Assay type: ADME, organism-based
# SETTINGS: in vivo
QUANTITY_MEASURED: Tmax
Kindly write the number and append the unit.

Endpoint output: Tmax of COc1cc(C(F)(F)F)ccc1-c1ncnc2cc(S(=O)(=O)Nc3nccs3)ccc12 . Value? 1.7 h

----------
CL free for assorted molecules
# TEST_SUMMARY: Unbound clearance in rat at 0.5 mg/kg, iv by LC-MS/MS analysis
# Assay type: ADME, organism-based
# SETTINGS: in vivo
Field format: number, assumed mL/min/kg, no unit text.

| SMILES_STRUCTURE | CL free (mL/min/kg) |
| --- | --- |
| COc1cc(C(F)(F)F)ccc1-c1cccc2cc(S(=O)(=O)Nc3nccs3)ccc12 | 817 |
| O=S(=O)(Nc1ncns1)c1ccc2c(-c3ccc(C(F)(F)F)cc3Br)cccc2c1 | 1330 |
| COc1cc(C(F)(F)F)ccc1-c1nccc2cc(S(=O)(=O)Nc3nccs3)ccc12 | 250 |
| COc1cc(C(F)(F)F)ccc1-c1ncnc2cc(S(=O)(=O)Nc3nccs3)ccc12 | 567 |
| COc1cc(C(F)(F)F)ccc1-c1cnnc2cc(S(=O)(=O)Nc3nccs3)ccc12 | 1350 |

Endpoint output: CL free of COc1cc(C(F)(F)F)ccc1-c1n[nH]c(=O)c2cc(S(=O)(=O)Nc3nccs3)ccc12 . Value? 2670

----------
# TEST_SUMMARY: Half life in dog at 0.5 mg/kg, iv by LC-MS/MS analysis
# Assay type: ADME, organism-based, Canis lupus familiaris
# SETTINGS: in vivo
QUANTITY_MEASURED: half-life (h)
Field format: number, assumed h, no unit text.

Endpoint output: half-life of COc1cc(C(F)(F)F)ccc1-c1ncnc2cc(S(=O)(=O)Nc3nccs3)ccc12 . Value? 18

----------
# TEST_SUMMARY: Clearance in rat at 0.5 mg/kg, iv by LC-MS/MS analysis
# Assay type: ADME, organism-based
# SETTINGS: in vivo
clearance for assorted molecules
Field format: number, assumed mL/min/kg, no unit text.

Known results for molecules:
| SMILES_STRUCTURE | clearance / mL/min/kg |
| --- | --- |
| COc1cc(C(F)(F)F)ccc1-c1ncnc2cc(S(=O)(=O)Nc3nccs3)ccc12 | 9 |
| COc1cc(C(F)(F)F)ccc1-c1nccc2cc(S(=O)(=O)Nc3nccs3)ccc12 | 3 |
| Cn1nccc1-c1cc(C(F)(F)F)ccc1-c1cn(C)c2cc(S(=O)(=O)Nc3ncns3)ccc12 | 68.3 |

Endpoint output: clearance of Cn1nccc1-c1cc(C(F)(F)F)ccc1-c1cccc2cc(S(=O)(=O)Nc3ncns3)ccc12 . Value? 158

Endpoint output: clearance of O=S(=O)(Nc1ncns1)c1ccc2c(-c3ccc(C(F)(F)F)cc3Br)cccc2c1 . Value? 4

Endpoint output: clearance of COc1cc(C(F)(F)F)ccc1-c1cccc2cc(S(=O)(=O)Nc3nccs3)ccc12 . Value? 0.817

Endpoint output: clearance of N#Cc1cc(S(=O)(=O)Nc2ncns2)ccc1Oc1ccc(C(F)(F)F)cc1-c1cn[nH]c1 . Value? 65

Endpoint output: clearance of COc1cc(C(F)(F)F)ccc1-c1cnnc2cc(S(=O)(=O)Nc3nccs3)ccc12 . Value? 18.3

----------
Papp for assorted compounds
# TEST_SUMMARY: Apparent permeability in MDCK cells
# Assay type: ADME, cell-based, Canis lupus familiaris
# SETTINGS: dog

| SMILES_STRUCTURE | Papp |
| --- | --- |
| N#Cc1cc(S(=O)(=O)Nc2ncns2)ccc1Oc1ccc(C(F)(F)F)cc1-c1cn[nH]c1 | < 1 ×10⁻⁶ cm/s |
| O=S(=O)(Nc1ncns1)c1ccc2c(-c3ccc(C(F)(F)F)cc3C3=CCNCC3)cccc2c1 | 1.3 ×10⁻⁶ cm/s |
| O=S(=O)(Nc1ncns1)c1ccc2c(-c3ccc(C(F)(F)F)cc3Br)cccc2c1 | > 5 ×10⁻⁶ cm/s |
| COc1cc(C(F)(F)F)ccc1-c1cccc2cc(S(=O)(=O)Nc3ccccn3)ccc12 | 9.5 ×10⁻⁶ cm/s |
| COc1cc(C(F)(F)F)ccc1-c1nccc2cc(S(=O)(=O)Nc3nccs3)cnc12 | 12 ×10⁻⁶ cm/s |
| COc1cc(C(F)(F)F)ccc1-c1cnnc2cc(S(=O)(=O)Nc3nccs3)ccc12 | 36 ×10⁻⁶ cm/s |
| COc1cc(C(F)(F)F)ccc1-c1cccc2cc(S(=O)(=O)Nc3cscn3)ccc12 | 27 ×10⁻⁶ cm/s |
| COc1cc(C(F)(F)F)ccc1-c1cccc2cc(S(=O)(=O)Nc3ncccn3)ccc12 | 36 ×10⁻⁶ cm/s |

Endpoint output: Papp of COc1cc(C(F)(F)F)ccc1-c1cccc2cc(S(=O)(=O)Nc3ccncn3)ccc12 . Value? 27 ×10⁻⁶ cm/s
